Tested on: kochia (Kochia scoparia)
Experiment: Test A postemergence, visual plant response rating
Type: in vivo
Details: Postemergence, 125 g ai/ha; 0 to 100 scale (0 no effect, 100 complete control)
Label YES when Kochia plant response rating >= 60; otherwise NO.

# input Item CON=C(c1cccc(Cl)c1)c1c(O)c(C)nn(C2CC2)c1=O (mixture of isomers) with Kochia plant response rating of 60 or above?
# output NO

# input Param item: CON=C(c1c(O)c(C)nn(C)c1=O)c1cccc2cc(Br)ccc12
# output YES

# input Param item: C#CCO/N=C(/c1c(O)c(C)nn(C)c1=O)c1cc(Br)cc2ccccc12
# output YES

# input Param item: C#CCn1nc(C)c(O)c(C(=NOC)c2cccc(Cl)c2)c1=O (mixture of isomers)
# output NO

# input Param item: CON=C(c1c(O)c(C)nn(C)c1=O)c1cccc2ccsc12 (single isomer, unassigned)
# output NO

# input Param item: CON=C(c1cccc(Cl)c1)c1c(O)c(C)n[nH]c1=O (mixture of isomers)
# output NO

# input Param item: CO/N=C(\c1cscc1C)c1c(O)c(C)nn(C)c1=O
# output NO

###

Tested on: Italian ryegrass (Lolium mutiflorum)
Assay: Test C postemergence, visual plant response rating
Type: in vivo
Conditions: Test C, postemergence, 125 g ai/ha
measure-name: Ryegrass, Italian plant response rating (0 to 100 scale)
Just the number, please, no unit attached.

Example entries and their recorded answers appear below.
CON=C(c1cc(Cl)cc(F)c1Cl)c1c(O)c(C)nn(C)c1=O	100
CO/N=C(/c1c(O)c(Cl)nn(C)c1=O)c1ccc(F)c2ccccc12	80

# input Any idea what Ryegrass, Italian plant response rating (0 to 100 scale) was measured for CO/N=C(/c1cc(C)cc(Cl)c1)c1c(O)c(C)nn(C)c1=O ?
# output 100

###

System: ragweed (common ragweed, Ambrosia elatior)
Assay: Test A postemergence, visual plant response rating
Format: in vivo
Settings: 500 g ai/ha, postemergence; 0 is no effect, 100 is complete control
measure-name: Ragweed plant response rating (0 to 100 scale)
Just the number, please, no unit attached.

CO/N=C(\c1cccc(C(F)(F)F)c1)c1c(O)c(C)nn(C)c1=O [Compound 71]	60
CON=C(c1cc(Cl)ccc1C(F)(F)F)c1c(O)c(C)nn(C)c1=O [Compound 97]	80
CON=C(c1sccc1C)c1c(O)c(C)nn(C)c1=O [Compound 134]	70
CCO/N=C(/c1c(O)c(Cl)nn(C)c1=O)c1cccc2ccccc12 [Compound 147]	90

With those in mind, consider the next compound.
# input Any idea what Ragweed plant response rating (0 to 100 scale) was measured for CCO/N=C(\c1ccccc1C)c1c(O)c(C)nn(C)c1=O [Compound 14] ?
# output 70

###

Tested on: galium (catchweed bedstraw, Galium aparine)
Assay: Test A postemergence, visual plant response rating
Format: in vivo
Conditions: Postemergence, 125 g ai/ha; 0 to 100 scale (0 no effect, 100 complete control)
Please assign label 0 whenever Galium plant response rating is at or above 70, and label 1 whenever it is below.

Previously resolved entries follow.
CO/N=C(/c1c(O)c(C)nn(C)c1=O)c1cc(Br)cc2ccccc12 [Compound 99]	label 0
CON=C(c1c(O)c(C)nn(C)c1=O)c1csc2ccccc12 (single isomer, unassigned) [Compound 45]	label 1
CON=C(c1cc(Cl)ccc1Cl)c1c(O)c(C)nn(C)c1=O [Compound 98]	label 0
Cc1nn(C)c(=O)c(/C(=N/OC(C)C)c2ccc(F)c3ccccc23)c1O [Compound 88]	label 0

# input Is the reported Galium plant response rating for CCO/N=C(\c1cccc(C)c1C)c1c(O)c(C)nn(C)c1=O [Compound 25] strictly below 70?
# output label 1

# input Param item: CON=C(c1cccc(Cl)c1)c1c(O)c(C)nn(C2CC2)c1=O (mixture of isomers) [Compound 33]
# output label 1

# input Param item: CON=C(c1ccccc1C1CC1)c1c(O)c(C)nn(C)c1=O [Compound 105]
# output label 0

# input Param item: CO/N=C(/c1ccsc1C)c1c(O)c(C)nn(C)c1=O [Compound 135]
# output label 1

# input Param item: CO/N=C(/c1ccccc1F)c1c(O)c(C)nn(C)c1=O [Compound 62]
# output label 1

# input Param item: CON=C(c1c(O)c(C)nn(C)c1=O)c1ccc(C)c2ccccc12 [Compound 131]
# output label 0

# input Param item: CO/N=C(/c1ccccc1C#N)c1c(O)c(C)nn(C)c1=O [Compound 77]
# output label 1

# input Param item: CCn1nc(C)c(O)c(C(=NOC)c2cccc(Cl)c2)c1=O (mixture of isomers) [Compound 2]
# output label 1

# input Param item: CON=C(c1c(O)c(C)nn(C)c1=O)c1cccc2cc(F)ccc12 [Compound 119]
# output label 0

# input Param item: CON=C(c1c(O)c(C)nn(C)c1=O)c1cccc2ccoc12 [Compound 61]
# output label 1

# input Param item: CON=C(c1c(O)c(C)nn(C)c1=O)c1cccc2sccc12 [Compound 58]
# output label 0

# input Param item: CO/N=C(/c1c(O)c(C)nn(C)c1=O)c1ccc(F)c2ccccc12 [Compound 75]
# output label 0
